# assay_summary: NCI Yeast Anticancer Drug Screen. Data for the cln2 rad14 strain (AID 165);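 further: 0% = growth equal to vehicle treated cultures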
# experimental_conditions: S. cerevisiae cln2 rad14 strain, at 50.0 µM, stronger effect = higher value
This is part of a sample that, as a whole, favours compounds with a hit. Of some 79,000 tested, about 15% had one in any assay.
Reported values of growth inhibition for individual entries
// note: answer is a bare numeric in %

Examples from the recorded data:
## Task Supply recorded growth inhibition for C/[N+]([O-])=N/COC1OC(COC2OCC(O)C(O)C2O)C(O)C(O)C1O (stereo unspecified) here.
## Result 13.8

## Task Supply recorded growth inhibition for O=C(O)CCSCc1ccc(I)cc1 here.
## Result 34.2

## Task Supply recorded growth inhibition for O=C(CN1CCN(c2ccccc2)CC1)N1CCc2c([nH]c3ccccc23)C1c1cccnc1 (stereo unspecified) here.
## Result 28.6

## Task Supply recorded growth inhibition for O/N=C\c1cc2ccccc2c[n+]1Cc1ccc2ccccc2c1Br here.
## Result 48

## Task Supply recorded growth inhibition for CCN(CCC#N)C(=S)Nc1ccc(C)c(C)c1 here.
## Result 1

# input for lookup
## Task Supply recorded growth inhibition for COC(CC(=O)O)CC(C)CC(C)(C)C (stereo unspecified) here.
## Result 18.9

###

# assay_summary: NCI Yeast Anticancer Drug Screen. Data for the rad50 strain (AID 155);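 further: 0% = growth of vehicle-only cultures of the same strain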
# experimental_conditions: S. cerevisiae rad50 strain growth inhibition; at 50.0 µM; stronger effect = higher value
This is part of a sample that, as a whole, favours compounds with a hit. Of some 79,000 tested, about 15% had one in any assay.
Reported values of growth inhibition for individual entries
// note: answer is a bare numeric in %

## Task Supply recorded growth inhibition for O=C(OCc1ccccc1)C1(O)CCCCC1 here.
## Result -5.6

# input for lookup
## Task Supply recorded growth inhibition for N=C(N)c1cccc(NC(=O)CCc2ccccc2)c1 here.
## Result -7.3

###

Reported values of growth inhibition for individual entries
# assay_summary: NCI Yeast Anticancer Drug Screen. Data for the mec2-1 strain (AID 157)
# experimental_conditions: S. cerevisiae mec2-1 strain, at 50.0 µM, stronger effect = higher value
# Description: Growth inhibition of yeast strains with defined genetic alterations is measured as a screen for potential anti-cancer activity. Selected strains with alterations in DNA damage repair or cell cycle control were exposed to compounds and growth inhibition was measured relative to vehicle treated controls. The strain used in this assay is mec2-1
Compounds without any hit were thinned out: in the full panel of roughly 79,000, 15% have a hit.
// note: answer is a bare numeric in %

## Task Supply recorded growth inhibition for Clc1cc2ncn(C3CCCO3)c2cc1Cl (configuration not stated) here.
## Result 5.1

## Task Supply recorded growth inhibition for Nc1c(Br)cc(Br)c2c1CCC2 here.
## Result 5.9

## Task Supply recorded growth inhibition for C1=Cc2ccccc2/C1=C\C=C\c1ccccc1 here.
## Result 8.75

## Task Supply recorded growth inhibition for CC1(C)CCc2cc3c(cc2O1)OC(C)(C)CC3=O here.
## Result 8.75

## Task Supply recorded growth inhibition for Cc1ccc(CN2CCOCC2)c(O)c1 here.
## Result 9.15

###

# assay_summary: NCI Yeast Anticancer Drug Screen. Data for the mec2-1 strain (AID 157)
# experimental_conditions: S. cerevisiae mec2-1 strain, at 50.0 µM
Compounds without any hit were thinned out: in the full panel of roughly 79,000, 15% have a hit. Calls of active or inactive are those of the source. Rule as the data show it: active = growth inhibition above about 70%; inactive = the rest.
Response enum: label 1 = active, label 0 = inactive

## Task Please let me know the test result on file for O/N=C\c1cc2ccccc2c[n+]1Cc1ccc2ccccc2c1Br .
## Result label 0

## Task Please let me know the test result on file for COc1ccc2cc(C(=O)CCC(=O)O)ccc2c1 .
## Result label 0

## Task Please let me know the test result on file for COC(=O)CC(=O)C[P+](c1ccccc1)(c1ccccc1)c1ccccc1 .
## Result label 0

## Task Please let me know the test result on file for O=C(O)Cc1ccc([N+](=O)[O-])cc1 .
## Result label 0

## Task Please let me know the test result on file for COC(=O)c1ccc(/C=C2\CCc3ccccc3C2=O)cc1 .
## Result label 0

## Task Please let me know the test result on file for NCC(=O)c1c[nH]c(=O)[nH]c1=O .
## Result label 0

## Task Please let me know the test result on file for C/C(CC(=O)c1ccccc1)=C1\C(=O)NN(c2ccccc2)C1=O .
## Result label 0

## Task Please let me know the test result on file for Cc1ccccc1C(C#N)/C(=N/NC(=O)C(=O)NN)C(=O)Nc1cccc(C(F)(F)F)c1 (stereo not given) .
## Result label 0

## Task Please let me know the test result on file for CCOC(=O)C(=O)C1CC(c2ccccc2)=NNC1=O (stereo not given) .
## Result label 0

## Task Please let me know the test result on file for O=C(OC1(c2nccc3ccccc23)CCCN(Cc2ccccc2)C1)c1ccccc1 (stereo not given) .
## Result label 0

## Task Please let me know the test result on file for CCCCC(O)(CCCC)C(C)(C)C .
## Result label 0

## Task Please let me know the test result on file for CCOC(=O)[C@H]1Nc2c(cccc2[N+](=O)[O-])[C@H]2OCC[C@@H]12 .
## Result label 0

## Task Please let me know the test result on file for CCCCCCCCCCCCCCC/C=C\C(=O)O .
## Result label 0

## Task Please let me know the test result on file for O=C1NC(=O)[C@H]2C3C=CC([C@@H]12)[C@@H]1C(=O)NC(=O)[C@H]31 .
## Result label 0

## Task Please let me know the test result on file for CN(C)N1C(=C(C#N)C#N)C(c2ccccc2)CC1C#N (stereo not given) .
## Result label 0

## Task Please let me know the test result on file for CCCCCc1[nH]c(=O)[nH]c(=O)c1S(=O)(=O)N1CCCCC1 .
## Result label 0

## Task Please let me know the test result on file for C#CCN(CC#C)C(=O)C(=O)c1c[nH]c2ccc(OC)cc12 .
## Result label 0

## Task Please let me know the test result on file for C1=[N+](c2ccccc2)CCN1c1ccccc1 .
## Result label 0
